Test: activity coefficient (dimensionless); of the first substance listed, at infinite dilution; xn = mol fraction of the nth substance listed
Conditions: 408.15 K; 101.33 kPa; Liquid; Chromatography; x1 = 0

[
  {
    "MOLECULE": "CC#N [acetonitrile] + CCCC[P+](CCCC)(CCCC)CCCC.O=S(=O)([N-]S(=O)(=O)C(F)(F)F)C(F)(F)F",
    "activity coefficient": 0.655
  },
  {
    "MOLECULE": "O [water] + CCCC[P+](CCCC)(CCCC)CCCC.O=S(=O)([N-]S(=O)(=O)C(F)(F)F)C(F)(F)F",
    "activity coefficient": 2.81
  },
  {
    "MOLECULE": "CC(C)=O [acetone] + CCCC[P+](CCCC)(CCCC)CCCC.O=S(=O)([N-]S(=O)(=O)C(F)(F)F)C(F)(F)F",
    "activity coefficient": 0.607
  },
  {
    "MOLECULE": "CC(C)(C)O [2-methylpropan-2-ol] + CCCC[P+](CCCC)(CCCC)CCCC.O=S(=O)([N-]S(=O)(=O)C(F)(F)F)C(F)(F)F",
    "activity coefficient": 1.35
  },
  {
    "MOLECULE": "CCCCC [pentane] + CCCC[P+](CCCC)(CCCC)CCCC.O=S(=O)([N-]S(=O)(=O)C(F)(F)F)C(F)(F)F",
    "activity coefficient": 3.7
  },
  {
    "MOLECULE": "C=CCCCC [hex-1-ene] + CCCC[P+](CCCC)(CCCC)CCCC.O=S(=O)([N-]S(=O)(=O)C(F)(F)F)C(F)(F)F",
    "activity coefficient": 3.35
  },
  {
    "MOLECULE": "C1CCCCCC1 [cycloheptane] + CCCC[P+](CCCC)(CCCC)CCCC.O=S(=O)([N-]S(=O)(=O)C(F)(F)F)C(F)(F)F",
    "activity coefficient": 3.37
  },
  {
    "MOLECULE": "Cc1ccc(C)cc1 [1,4-dimethylbenzene] + CCCC[P+](CCCC)(CCCC)CCCC.O=S(=O)([N-]S(=O)(=O)C(F)(F)F)C(F)(F)F",
    "activity coefficient": 1.79
  },
  {
    "MOLECULE": "CCCC=O [butanal] + CCCC[P+](CCCC)(CCCC)CCCC.O=S(=O)([N-]S(=O)(=O)C(F)(F)F)C(F)(F)F",
    "activity coefficient": 0.817
  },
  {
    "MOLECULE": "C1COCCO1 [1,4-dioxane] + CCCC[P+](CCCC)(CCCC)CCCC.O=S(=O)([N-]S(=O)(=O)C(F)(F)F)C(F)(F)F",
    "activity coefficient": 0.941
  },
  {
    "MOLECULE": "CCC[N+](=O)[O-] [1-nitropropane] + CCCC[P+](CCCC)(CCCC)CCCC.O=S(=O)([N-]S(=O)(=O)C(F)(F)F)C(F)(F)F",
    "activity coefficient": 0.768
  },
  {
    "MOLECULE": "CCOC(C)(C)C [2-ethoxy-2-methylpropane] + CCCC[P+](CCCC)(CCCC)CCCC.O=S(=O)([N-]S(=O)(=O)C(F)(F)F)C(F)(F)F",
    "activity coefficient": 3.02
  },
  {
    "MOLECULE": "C1CCCCCCC1 [cyclooctane] + CCCC[P+](CCCC)(CCCC)CCCC.O=S(=O)([N-]S(=O)(=O)C(F)(F)F)C(F)(F)F",
    "activity coefficient": 3.91
  },
  {
    "MOLECULE": "CC(C)OC(C)C [diisopropyl ether] + CCCC[P+](CCCC)(CCCC)CCCC.O=S(=O)([N-]S(=O)(=O)C(F)(F)F)C(F)(F)F",
    "activity coefficient": 3.17
  },
  {
    "MOLECULE": "CCCC(=O)OC [methyl butanoate] + CCCC[P+](CCCC)(CCCC)CCCC.O=S(=O)([N-]S(=O)(=O)C(F)(F)F)C(F)(F)F",
    "activity coefficient": 1.17
  },
  {
    "MOLECULE": "C=CCCCCC [1-heptene] + CCCC[P+](CCCC)(CCCC)CCCC.O=S(=O)([N-]S(=O)(=O)C(F)(F)F)C(F)(F)F",
    "activity coefficient": 4.17
  },
  {
    "MOLECULE": "CCCCCC [hexane] + CCCC[P+](CCCC)(CCCC)CCCC.O=S(=O)([N-]S(=O)(=O)C(F)(F)F)C(F)(F)F",
    "activity coefficient": 4.51
  },
  {
    "MOLECULE": "CC1CCCCC1 [methylcyclohexane] + CCCC[P+](CCCC)(CCCC)CCCC.O=S(=O)([N-]S(=O)(=O)C(F)(F)F)C(F)(F)F",
    "activity coefficient": 3.46
  },
  {
    "MOLECULE": "C1=CCCCC1 [cyclohexene] + CCCC[P+](CCCC)(CCCC)CCCC.O=S(=O)([N-]S(=O)(=O)C(F)(F)F)C(F)(F)F",
    "activity coefficient": 2.37
  },
  {
    "MOLECULE": "C=Cc1ccccc1 [styrene] + CCCC[P+](CCCC)(CCCC)CCCC.O=S(=O)([N-]S(=O)(=O)C(F)(F)F)C(F)(F)F",
    "activity coefficient": 1.23
  },
  {
    "MOLECULE": "C=CCCC [1-pentene] + CCCC[P+](CCCC)(CCCC)CCCC.O=S(=O)([N-]S(=O)(=O)C(F)(F)F)C(F)(F)F",
    "activity coefficient": 2.82
  },
  {
    "MOLECULE": "CCOCC [diethyl ether] + CCCC[P+](CCCC)(CCCC)CCCC.O=S(=O)([N-]S(=O)(=O)C(F)(F)F)C(F)(F)F",
    "activity coefficient": 1.91
  },
  {
    "MOLECULE": "CCC(C)CC [3-methylpentane] + CCCC[P+](CCCC)(CCCC)CCCC.O=S(=O)([N-]S(=O)(=O)C(F)(F)F)C(F)(F)F",
    "activity coefficient": 4.13
  },
  {
    "MOLECULE": "CCCCCCCCCC [decane] + CCCC[P+](CCCC)(CCCC)CCCC.O=S(=O)([N-]S(=O)(=O)C(F)(F)F)C(F)(F)F",
    "activity coefficient": 9.29
  },
  {
    "MOLECULE": "CC(C)O [propan-2-ol] + CCCC[P+](CCCC)(CCCC)CCCC.O=S(=O)([N-]S(=O)(=O)C(F)(F)F)C(F)(F)F",
    "activity coefficient": 1.26
  },
  {
    "MOLECULE": "C1CCOC1 [tetrahydrofuran] + CCCC[P+](CCCC)(CCCC)CCCC.O=S(=O)([N-]S(=O)(=O)C(F)(F)F)C(F)(F)F",
    "activity coefficient": 0.772
  },
  {
    "MOLECULE": "C#CCCCC [1-hexyne] + CCCC[P+](CCCC)(CCCC)CCCC.O=S(=O)([N-]S(=O)(=O)C(F)(F)F)C(F)(F)F",
    "activity coefficient": 2.17
  }
]

###

Test: activity coefficient (dimensionless); of the first substance listed, at infinite dilution; xn = mol fraction of the nth substance listed
Settings: 358.15 K; 101.33 kPa; Liquid; Chromatography; x1 = 0
activity coefficient under 2 gets 1, anything at or over 2 gets 0.

[
  {
    "COMPOUND": "C=CCCCCCCCC [1-decene] + CCCC[P+](CCCC)(CCCC)CCCC.O=S(=O)([N-]S(=O)(=O)C(F)(F)F)C(F)(F)F",
    "CATEGORY LABEL": 0
  },
  {
    "COMPOUND": "C#CCCC [1-pentyne] + CCCC[P+](CCCC)(CCCC)CCCC.O=S(=O)([N-]S(=O)(=O)C(F)(F)F)C(F)(F)F",
    "CATEGORY LABEL": 1
  },
  {
    "COMPOUND": "C#CCCCCC [1-heptyne] + CCCC[P+](CCCC)(CCCC)CCCC.O=S(=O)([N-]S(=O)(=O)C(F)(F)F)C(F)(F)F",
    "CATEGORY LABEL": 0
  },
  {
    "COMPOUND": "CCC(C)O (configuration not stated) [butan-2-ol] + CCCC[P+](CCCC)(CCCC)CCCC.O=S(=O)([N-]S(=O)(=O)C(F)(F)F)C(F)(F)F",
    "CATEGORY LABEL": 1
  },
  {
    "COMPOUND": "CCCCCCCCCC [decane] + CCCC[P+](CCCC)(CCCC)CCCC.O=S(=O)([N-]S(=O)(=O)C(F)(F)F)C(F)(F)F",
    "CATEGORY LABEL": 0
  },
  {
    "COMPOUND": "CCC(C)(C)C [2,2-dimethylbutane] + CCCC[P+](CCCC)(CCCC)CCCC.O=S(=O)([N-]S(=O)(=O)C(F)(F)F)C(F)(F)F",
    "CATEGORY LABEL": 0
  },
  {
    "COMPOUND": "c1ccsc1 [thiophene] + CCCC[P+](CCCC)(CCCC)CCCC.O=S(=O)([N-]S(=O)(=O)C(F)(F)F)C(F)(F)F",
    "CATEGORY LABEL": 1
  },
  {
    "COMPOUND": "CCC(=O)CC [pentan-3-one] + CCCC[P+](CCCC)(CCCC)CCCC.O=S(=O)([N-]S(=O)(=O)C(F)(F)F)C(F)(F)F",
    "CATEGORY LABEL": 1
  },
  {
    "COMPOUND": "CCO [ethanol] + CCCC[P+](CCCC)(CCCC)CCCC.O=S(=O)([N-]S(=O)(=O)C(F)(F)F)C(F)(F)F",
    "CATEGORY LABEL": 1
  },
  {
    "COMPOUND": "CC(C)OC(C)C [diisopropyl ether] + CCCC[P+](CCCC)(CCCC)CCCC.O=S(=O)([N-]S(=O)(=O)C(F)(F)F)C(F)(F)F",
    "CATEGORY LABEL": 0
  },
  {
    "COMPOUND": "CCOCC [diethyl ether] + CCCC[P+](CCCC)(CCCC)CCCC.O=S(=O)([N-]S(=O)(=O)C(F)(F)F)C(F)(F)F",
    "CATEGORY LABEL": 1
  },
  {
    "COMPOUND": "C1CCCCC1 [cyclohexane] + CCCC[P+](CCCC)(CCCC)CCCC.O=S(=O)([N-]S(=O)(=O)C(F)(F)F)C(F)(F)F",
    "CATEGORY LABEL": 0
  },
  {
    "COMPOUND": "CCCC(=O)OC [methyl butanoate] + CCCC[P+](CCCC)(CCCC)CCCC.O=S(=O)([N-]S(=O)(=O)C(F)(F)F)C(F)(F)F",
    "CATEGORY LABEL": 1
  },
  {
    "COMPOUND": "Cc1ccccc1C [1,2-dimethylbenzene] + CCCC[P+](CCCC)(CCCC)CCCC.O=S(=O)([N-]S(=O)(=O)C(F)(F)F)C(F)(F)F",
    "CATEGORY LABEL": 1
  },
  {
    "COMPOUND": "CC(C)CO [2-methyl-1-propanol] + CCCC[P+](CCCC)(CCCC)CCCC.O=S(=O)([N-]S(=O)(=O)C(F)(F)F)C(F)(F)F",
    "CATEGORY LABEL": 1
  },
  {
    "COMPOUND": "COC(C)(C)C [2-methoxy-2-methylpropane] + CCCC[P+](CCCC)(CCCC)CCCC.O=S(=O)([N-]S(=O)(=O)C(F)(F)F)C(F)(F)F",
    "CATEGORY LABEL": 1
  },
  {
    "COMPOUND": "C#CCCCC [1-hexyne] + CCCC[P+](CCCC)(CCCC)CCCC.O=S(=O)([N-]S(=O)(=O)C(F)(F)F)C(F)(F)F",
    "CATEGORY LABEL": 1
  },
  {
    "COMPOUND": "CC(C)c1ccccc1 [isopropylbenzene] + CCCC[P+](CCCC)(CCCC)CCCC.O=S(=O)([N-]S(=O)(=O)C(F)(F)F)C(F)(F)F",
    "CATEGORY LABEL": 1
  },
  {
    "COMPOUND": "CCCCC [pentane] + CCCC[P+](CCCC)(CCCC)CCCC.O=S(=O)([N-]S(=O)(=O)C(F)(F)F)C(F)(F)F",
    "CATEGORY LABEL": 0
  },
  {
    "COMPOUND": "Cc1ccc(C)cc1 [1,4-dimethylbenzene] + CCCC[P+](CCCC)(CCCC)CCCC.O=S(=O)([N-]S(=O)(=O)C(F)(F)F)C(F)(F)F",
    "CATEGORY LABEL": 1
  },
  {
    "COMPOUND": "O [water] + CCCC[P+](CCCC)(CCCC)CCCC.O=S(=O)([N-]S(=O)(=O)C(F)(F)F)C(F)(F)F",
    "CATEGORY LABEL": 0
  },
  {
    "COMPOUND": "C1CCCCCC1 [cycloheptane] + CCCC[P+](CCCC)(CCCC)CCCC.O=S(=O)([N-]S(=O)(=O)C(F)(F)F)C(F)(F)F",
    "CATEGORY LABEL": 0
  }
]
